- run.conditions: 293.15 K; 101.33 kPa; Liquid
quantity.name: viscosity (mPa·s)
Numbers only, in mPa·s.

OCCCCCCn1cc[nH+]c1.[Cl-] [1-(6-hydroxyhexyl)imidazolium chloride]	587.2
CCn1cc[n+](CCCCCCO)c1.[Cl-] [1-ethyl-3-(6-hydroxyhexyl)-1H-imidazolium chloride]	1348.1
Cn1cc[n+](CCCCCCO)c1.[Cl-] [3-(6-hydroxyhexyl)-1-methylimidazolium chloride]	1025.9

We next turn to a different compound, shown below.
Please fill in: viscosity reported for CCCCn1cc[n+](CCCCCCO)c1.[Cl-] [1-butyl-3-(6-hydroxyhexyl)-1H-imidazolium chloride] = 1489.7
